Data provenance is PubChem BioAssay AID1835.

Target: Voltage-gated inwardly rectifying potassium channel KCNH2 (Homo sapiens)
Test: hERG protection against dofetilide inhibition, confirmation, cell-based, thallium flux, duplicate retest, dofetilide IC70 (AID 1835)
Conditions: hERG cell line, FluxOR thallium flux, dofetilide-blocked; at 10 µM
Among all 2,400 compounds or so, about 750 (31%) were called active.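 How the source made its calls: active means median signal gain over dofetilide-blocked control wells reaching their mean plus 3 SD, so readout 1 at least 0; inactive means the rest.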 Some of the results follow.
Labels: yes (1) = active, no (0) = inactive

COMPOUND: CCCCCN(C(=O)CCC(=O)OCC(=O)N(C)C1CCCCC1)c1c(N)n(CCCC)c(=O)[nH]c1=O
SYSTEM_TESTED: Voltage-gated inwardly rectifying potassium channel KCNH2 (Homo sapiens)
CATEGORY_LABEL: no (0)

COMPOUND: Cc1ccc(C)c(NC(=O)CCN2C(=O)[C@@H]3Cc4ccccc4CN3C2=O)c1
SYSTEM_TESTED: Voltage-gated inwardly rectifying potassium channel KCNH2 (Homo sapiens)
CATEGORY_LABEL: no (0)

COMPOUND: O=C(/C=C/Nc1ccccc1)C(F)(F)F
SYSTEM_TESTED: Voltage-gated inwardly rectifying potassium channel KCNH2 (Homo sapiens)
CATEGORY_LABEL: no (0)

COMPOUND: CCOC(=O)c1sc2nc(N3CCOCC3)c3c(c2c1N)CCN(Cc1ccccc1)C3
SYSTEM_TESTED: Voltage-gated inwardly rectifying potassium channel KCNH2 (Homo sapiens)
CATEGORY_LABEL: no (0)

COMPOUND: S=c1nc[nH]c2c1sc1nc(-c3ccccc3)c3c(c12)CCCC3
SYSTEM_TESTED: Voltage-gated inwardly rectifying potassium channel KCNH2 (Homo sapiens)
CATEGORY_LABEL: yes (1)

COMPOUND: CC(C)c1nc2sc3c(=S)nc[nH]c3c2c2c1CCC2
SYSTEM_TESTED: Voltage-gated inwardly rectifying potassium channel KCNH2 (Homo sapiens)
CATEGORY_LABEL: yes (1)

COMPOUND: O=C1N2CCSC2=NC1(NS(=O)(=O)c1ccccc1)C(F)(F)F (stereo not given)
SYSTEM_TESTED: Voltage-gated inwardly rectifying potassium channel KCNH2 (Homo sapiens)
CATEGORY_LABEL: yes (1)

COMPOUND: O=C(O)c1cc(N/N=C/c2ccc(-c3ccccc3)cc2)ccc1Cl
SYSTEM_TESTED: Voltage-gated inwardly rectifying potassium channel KCNH2 (Homo sapiens)
CATEGORY_LABEL: no (0)

COMPOUND: OCCN1CCN(c2ncnc3c2sc2nc(N4CCOCC4)c4c(c23)CCC4)CC1
SYSTEM_TESTED: Voltage-gated inwardly rectifying potassium channel KCNH2 (Homo sapiens)
CATEGORY_LABEL: no (0)

COMPOUND: COc1cc2c(cc1OC)C(c1ccc([N+](=O)[O-])cc1)N(C(C)=O)CC2 (stereo not given)
SYSTEM_TESTED: Voltage-gated inwardly rectifying potassium channel KCNH2 (Homo sapiens)
CATEGORY_LABEL: no (0)

* * *

Target: Voltage-gated inwardly rectifying potassium channel KCNH2 (Homo sapiens)
Experiment: hERG protection against dofetilide inhibition, confirmation, cell-based, thallium flux, duplicate retest, dofetilide IC70 (AID 1835)
Settings: hERG cell line, FluxOR thallium flux, dofetilide-blocked; at 10 µM; active compounds read high
The campaign covered roughly 2,400 compounds. About 750 (31%) were called active. The list shows a part of the results.
molecules and their reported activity increase over dofetilide control, less the hit threshold
PARAMETER_MEASURED: activity increase over dofetilide control, less the hit threshold (%)

MOLECULE: Cc1cccc(C(=O)NC(=S)N(C)C2CCCCC2)c1
UNIT_ABBREVIATION: %
OBSERVED_MEASUREMENT: 21

MOLECULE: c1ccc(-c2ccc(-c3ccncn3)cc2)cc1
UNIT_ABBREVIATION: %
OBSERVED_MEASUREMENT: -14

MOLECULE: CS(=O)(=O)N1CCN(c2ccccc2NC(=O)Nc2cccc(Cl)c2)CC1
UNIT_ABBREVIATION: %
OBSERVED_MEASUREMENT: -16

MOLECULE: c1ccc(Cn2ncc3c(N4CCN(C(c5ccccc5)c5ccccc5)CC4)ncnc32)cc1
UNIT_ABBREVIATION: %
OBSERVED_MEASUREMENT: -7

MOLECULE: CCc1ccc(OCC(=O)Nc2ncn[nH]2)cc1
UNIT_ABBREVIATION: %
OBSERVED_MEASUREMENT: -29

MOLECULE: O=C(COc1cccc(-n2cnnn2)c1)Nc1ccc([N+](=O)[O-])cc1
UNIT_ABBREVIATION: %
OBSERVED_MEASUREMENT: -1

MOLECULE: CCc1ccc(NC(=O)C(=O)NNC(=O)COc2cccc(OC)c2)cc1
UNIT_ABBREVIATION: %
OBSERVED_MEASUREMENT: 14

MOLECULE: CCOc1cc(N2CCOCC2)c(OCC)cc1NC(=O)Cc1ccccc1
UNIT_ABBREVIATION: %
OBSERVED_MEASUREMENT: -2

MOLECULE: c1ccc(-c2n[nH]c(-c3ccccn3)n2)cc1
UNIT_ABBREVIATION: %
OBSERVED_MEASUREMENT: 7

MOLECULE: Oc1oc(-c2cccc3ccccc23)nc1/C=N/c1nccs1
UNIT_ABBREVIATION: %
OBSERVED_MEASUREMENT: 4

MOLECULE: COc1ccc(-c2nc(-c3ccccn3)ncc2S(C)(=O)=O)cc1
UNIT_ABBREVIATION: %
OBSERVED_MEASUREMENT: -15

MOLECULE: CN(C(=O)c1cnccn1)c1nnc(-c2cnccn2)s1
UNIT_ABBREVIATION: %
OBSERVED_MEASUREMENT: -15

MOLECULE: CCc1ccc2[nH]c(O)c(N=Nc3nc(-c4ccccc4)cs3)c2c1
UNIT_ABBREVIATION: %
OBSERVED_MEASUREMENT: -8

MOLECULE: Cn1c(O)c(N=Nc2nc(-c3ccccc3)cs2)c2ccccc21
UNIT_ABBREVIATION: %
OBSERVED_MEASUREMENT: 65

MOLECULE: c1ccc(-c2csc(Nc3ccc4c(c3)OCCO4)n2)cc1
UNIT_ABBREVIATION: %
OBSERVED_MEASUREMENT: -17

MOLECULE: CCOc1cc(N2CCOCC2)c(OCC)cc1NC(=O)Cn1nc(C)c([N+](=O)[O-])c1C
UNIT_ABBREVIATION: %
OBSERVED_MEASUREMENT: 16

MOLECULE: CCOC(=O)c1ccc(NC(=O)Cn2nnc(-c3ccccc3)n2)cc1
UNIT_ABBREVIATION: %
OBSERVED_MEASUREMENT: -19

MOLECULE: CSc1ccc(C2NN=C(c3ccccc3)S2)cc1 (stereo not drawn)
UNIT_ABBREVIATION: %
OBSERVED_MEASUREMENT: -11

MOLECULE: COc1cccc(OCC(=O)NNC(=O)C(=O)Nc2cccc(C)c2)c1
UNIT_ABBREVIATION: %
OBSERVED_MEASUREMENT: 50

MOLECULE: O=C(N/N=C/c1ccc2cccc(OCc3ccccc3)c2n1)c1ccc(Br)cc1
UNIT_ABBREVIATION: %
OBSERVED_MEASUREMENT: -9

MOLECULE: CN(C(=S)NC(=O)c1ccc(Cl)cc1)C1CCCCC1
UNIT_ABBREVIATION: %
OBSERVED_MEASUREMENT: -3

MOLECULE: CCOC(=O)C1=C(C)NC(=O)NC1c1cccc(OC)c1OCc1ccccc1Cl (stereo not drawn)
UNIT_ABBREVIATION: %
OBSERVED_MEASUREMENT: -11

MOLECULE: Cn1c(/N=C/c2c(O)ccc3ccccc23)nc2ccccc21
UNIT_ABBREVIATION: %
OBSERVED_MEASUREMENT: -32
